- TESTED TARGET: T1, human EpCAM (epithelial cell adhesion/activating molecule) (human, UniProt P16422 24-314)
- T1 sequence: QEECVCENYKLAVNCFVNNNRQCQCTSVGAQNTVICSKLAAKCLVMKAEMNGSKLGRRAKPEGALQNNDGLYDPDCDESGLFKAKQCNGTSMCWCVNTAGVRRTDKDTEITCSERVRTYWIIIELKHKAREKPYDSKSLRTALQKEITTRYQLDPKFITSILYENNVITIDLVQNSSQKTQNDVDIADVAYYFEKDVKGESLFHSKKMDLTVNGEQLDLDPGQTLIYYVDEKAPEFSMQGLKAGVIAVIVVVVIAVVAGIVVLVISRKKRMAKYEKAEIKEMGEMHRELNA
- EXPERIMENT SUMMARY: cell-based or functional assay
OBSERVABLE: % Annexin V/PI-positive cells, NCI-N87, 3.0 µg/ml mAb (%)

>>> reported("murine monoclonal antibody 12H8 (antibody, mouse IgG2a, V domains shown, Mouse IgG2a, kappa, from hybridoma; also called m342-12H8.3; m12H8) VH: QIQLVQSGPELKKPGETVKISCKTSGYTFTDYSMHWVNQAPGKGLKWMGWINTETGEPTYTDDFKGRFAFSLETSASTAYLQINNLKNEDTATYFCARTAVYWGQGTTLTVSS VL: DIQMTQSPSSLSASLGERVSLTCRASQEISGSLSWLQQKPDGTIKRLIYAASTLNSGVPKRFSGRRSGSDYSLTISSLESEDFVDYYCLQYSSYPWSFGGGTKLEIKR")
62
>>> reported("murine monoclonal antibody 6D11 (antibody, mouse IgG1, V domains shown, Mouse IgG1, kappa, from hybridoma; also called m338-6D11.8) VH: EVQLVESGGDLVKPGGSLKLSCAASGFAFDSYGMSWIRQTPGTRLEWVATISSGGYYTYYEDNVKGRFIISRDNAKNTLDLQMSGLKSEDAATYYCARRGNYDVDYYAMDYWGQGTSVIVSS VL: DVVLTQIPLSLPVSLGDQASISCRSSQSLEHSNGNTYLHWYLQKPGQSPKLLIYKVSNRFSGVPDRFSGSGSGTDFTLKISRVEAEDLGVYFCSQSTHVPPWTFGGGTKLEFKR")
51
>>> reported("murine monoclonal antibody 2D11 (antibody, mouse IgG1, V domains shown, Mouse IgG1, kappa, from hybridoma; also called m322-2D11.19) VH: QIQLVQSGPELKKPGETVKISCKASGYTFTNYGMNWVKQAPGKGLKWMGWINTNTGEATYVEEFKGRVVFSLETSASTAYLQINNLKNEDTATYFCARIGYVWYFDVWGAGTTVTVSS VL: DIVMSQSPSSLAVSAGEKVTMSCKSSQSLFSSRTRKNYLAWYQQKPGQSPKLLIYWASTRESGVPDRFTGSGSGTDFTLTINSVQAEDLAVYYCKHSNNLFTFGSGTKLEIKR")
48
>>> reported("murine monoclonal antibody 4D2 (antibody, mouse IgG1, V domains shown, Mouse IgG1, kappa, from hybridoma; also called m338-4D2.20) VH: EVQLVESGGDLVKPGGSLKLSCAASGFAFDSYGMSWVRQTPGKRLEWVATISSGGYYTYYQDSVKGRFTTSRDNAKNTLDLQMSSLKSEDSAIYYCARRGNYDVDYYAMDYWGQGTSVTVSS VL: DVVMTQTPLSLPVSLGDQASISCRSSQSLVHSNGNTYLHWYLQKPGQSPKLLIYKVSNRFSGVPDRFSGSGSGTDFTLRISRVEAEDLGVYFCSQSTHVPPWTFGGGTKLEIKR")
52
